Below, each entry is listed with its recorded Ki.
Target: human dopamine transporter (Homo sapiens)
Sequence (Q01959 whole entry): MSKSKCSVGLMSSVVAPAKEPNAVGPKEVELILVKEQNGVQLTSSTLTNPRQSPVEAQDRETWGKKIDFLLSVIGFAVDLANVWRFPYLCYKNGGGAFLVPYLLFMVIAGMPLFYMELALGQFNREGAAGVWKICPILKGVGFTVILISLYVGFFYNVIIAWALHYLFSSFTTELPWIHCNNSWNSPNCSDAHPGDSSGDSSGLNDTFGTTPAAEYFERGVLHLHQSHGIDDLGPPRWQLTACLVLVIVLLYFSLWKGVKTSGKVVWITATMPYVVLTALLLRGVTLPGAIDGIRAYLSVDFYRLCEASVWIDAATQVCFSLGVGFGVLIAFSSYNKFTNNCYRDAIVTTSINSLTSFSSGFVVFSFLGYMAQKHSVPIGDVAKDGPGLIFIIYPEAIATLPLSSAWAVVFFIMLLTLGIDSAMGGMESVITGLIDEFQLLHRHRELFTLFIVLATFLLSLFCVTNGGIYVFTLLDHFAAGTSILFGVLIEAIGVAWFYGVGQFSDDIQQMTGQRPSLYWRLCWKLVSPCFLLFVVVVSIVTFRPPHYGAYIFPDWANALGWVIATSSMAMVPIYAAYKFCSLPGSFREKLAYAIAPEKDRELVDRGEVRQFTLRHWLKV
Assay: Inhibition of [3H]DA transport into HEK-293 cells expressing the human transporter
Lab note: write values as number then unit, every time.

So what does the record say about Ki for `CNC[C@H](c1ccc2ccccc2c1)[C@H](OCCCCCO[C@H](c1ccccc1)[C@H](CNC)c1ccc2ccccc2c1)c1ccccc1` ? 52 nM

So what does the record say about Ki for `CNC[C@H](c1ccc2ccccc2c1)[C@@H](F)c1ccccc1` ? 30 nM

So what does the record say about Ki for `CNC[C@@H](c1ccc2ccccc2c1)[C@H](N=[N+]=[N-])c1ccccc1` ? 77 nM

So what does the record say about Ki for `CNC[C@H](c1ccc2ccccc2c1)[C@H](OC)c1ccccc1` ? 21 nM

So what does the record say about Ki for `CNC[C@H](c1ccc2ccccc2c1)[C@@H](N=[N+]=[N-])c1ccccc1` ? 64 nM

So what does the record say about Ki for CNCC(c1ccc2ccccc2c1)C(F)c1ccccc1 (racemic) [MCJ001-F-(±)-RR] ? 33 nM

---

Molecular target: human serotonin transporter (hSERT) (Homo sapiens, UniProt P31645)
Construct: expressed in transfected cells; host or cells: HEK-293, stably transfected
Sequence (P31645 whole entry): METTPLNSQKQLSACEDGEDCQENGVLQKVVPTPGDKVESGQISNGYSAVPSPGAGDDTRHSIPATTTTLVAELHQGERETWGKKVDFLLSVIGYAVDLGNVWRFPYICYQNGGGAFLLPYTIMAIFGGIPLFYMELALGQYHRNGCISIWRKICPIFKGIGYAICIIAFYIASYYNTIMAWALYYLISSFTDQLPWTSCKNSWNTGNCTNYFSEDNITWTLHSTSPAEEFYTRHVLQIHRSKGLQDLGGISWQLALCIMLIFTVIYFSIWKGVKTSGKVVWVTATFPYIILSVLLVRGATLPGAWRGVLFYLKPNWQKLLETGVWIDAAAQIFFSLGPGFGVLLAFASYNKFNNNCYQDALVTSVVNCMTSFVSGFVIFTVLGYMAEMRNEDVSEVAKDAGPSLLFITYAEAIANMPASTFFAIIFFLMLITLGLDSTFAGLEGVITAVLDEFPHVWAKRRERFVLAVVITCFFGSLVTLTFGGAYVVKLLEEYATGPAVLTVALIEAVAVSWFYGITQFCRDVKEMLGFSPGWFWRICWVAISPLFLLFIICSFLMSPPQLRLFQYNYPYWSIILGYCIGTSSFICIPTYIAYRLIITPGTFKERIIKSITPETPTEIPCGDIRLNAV
Assay: Radioligand binding to cloned hSERT, [3H]citalopram, HEK-293 cell membranes
Conditions: in words
Readout: Binding at hSERT compared to PRC200-SS

CNC[C@H](c1ccc2ccccc2c1)[C@@H](F)c1ccccc1    greater binding at hSERT
CN(C)C[C@H](c1ccc2ccccc2c1)[C@H](N)c1ccccc1    greater binding at hSERT

---

Target: human serotonin transporter (hSERT) (Homo sapiens)
Construct: expressed in transfected cells; host or cells: HEK-293, stably transfected
Assay: Radioligand binding to cloned hSERT, [3H]citalopram, HEK-293 cell membranes
Below, each entry is listed with its recorded pKd.
Would you please state pKd, meaning minus log10 of the concentration in mol/L, as a bare number?

In the examples that follow, each entry is paired with its recorded pKd.
CNC[C@H](c1ccc2ccccc2c1)[C@H](F)c1ccccc1    9.09
CNC[C@@H](c1ccc2ccccc2c1)[C@H](F)c1ccccc1    6.89
CNC[C@H](c1ccc2ccccc2c1)[C@@H](F)c1ccccc1    8.55

Then this compound:
So what does the record say about pKd for CNCC(c1ccc2ccccc2c1)C(F)c1ccccc1 (racemic) [MCJ001-F-(±)-RR] ? 8.41

---

Target: human serotonin transporter (hSERT) (Homo sapiens, UniProt P31645)
Construct: expressed in transfected cells; host or cells: HEK-293, stably transfected
Test: Radioligand binding to cloned hSERT, [3H]citalopram, HEK-293 cell membranes
Settings: Geometric Mean ± SEM; HCl salts; read-out: Equilibrium Dissociation Constant (KD) for Transporter Binding, hSERT (S)
Readout: Kd (nM)
Supply the numeric figure in nM, leaving out any unit text.

In the examples that follow, each entry is paired with its recorded Kd.
CNC[C@@H](c1ccc2ccccc2c1)[C@@H](Cl)c1ccccc1    35
CNC[C@@H](c1ccc2ccccc2c1)[C@H](Cl)c1ccccc1    55
CNC[C@H](c1ccc2ccccc2c1)[C@H](OCCCCCO[C@H](c1ccccc1)[C@H](CNC)c1ccc2ccccc2c1)c1ccccc1    140

Then this compound:
So what does the record say about Kd for `CNC[C@H](c1ccc2ccccc2c1)[C@H](Cl)c1ccccc1` ? 1.1

---

Tested on: hSERT, hNET, hDAT
Test: Human transporter binding: rank order and range of potency over the three transporters
Details: from KD values
Readout: Potency (rank-order of potency of binding; S = hSERT, N = hNET, D = hDAT)

In the examples that follow, each entry is paired with its recorded Potency (rank-order of potency of binding; S = hSERT, N = hNET, D = hDAT).
CN1CO[C@H](c2ccccc2)[C@@H](c2ccc3ccccc3c2)C1    S > N > D
CNC[C@H](c1ccc2ccccc2c1)[C@H](O)c1ccccc1 [PRC200-SS, reference compound]    N > S > D
CNC[C@H](c1ccc2ccccc2c1)[C@@H](N)c1ccccc1    N > S > D
CNC[C@@H](c1ccc2ccccc2c1)[C@H](N)c1ccccc1    N > S > D
CNC[C@H](c1ccc2ccccc2c1)[C@H](OCCCCO[C@H](c1ccccc1)[C@H](CNC)c1ccc2ccccc2c1)c1ccccc1    S > D > N

Provide value of Potency (rank-order of potency of binding; S = hSERT, N = hNET, D = hDAT) for this record tested with hSERT, hNET, hDAT: `CNC[C@@H](c1ccc2ccccc2c1)[C@H](Cl)c1ccccc1` S > D > N

Provide value of Potency (rank-order of potency of binding; S = hSERT, N = hNET, D = hDAT) for this record tested with hSERT, hNET, hDAT: CNC[C@@H](c1ccc2ccccc2c1)[C@@H](N)c1ccccc1 (racemic) [MCJ001-NH2-(±)-RR] S > N > D

Provide value of Potency (rank-order of potency of binding; S = hSERT, N = hNET, D = hDAT) for this record tested with hSERT, hNET, hDAT: `CNC[C@H](c1ccc2ccccc2c1)[C@@H](F)c1ccccc1` N > S > D

Provide value of Potency (rank-order of potency of binding; S = hSERT, N = hNET, D = hDAT) for this record tested with hSERT, hNET, hDAT: `CNC[C@H](c1ccc2ccccc2c1)[C@H](OC)c1ccccc1` N > S > D

Provide value of Potency (rank-order of potency of binding; S = hSERT, N = hNET, D = hDAT) for this record tested with hSERT, hNET, hDAT: `CNC[C@H](c1ccc2ccccc2c1)[C@H](Cl)c1ccccc1` S > N > D

Provide value of Potency (rank-order of potency of binding; S = hSERT, N = hNET, D = hDAT) for this record tested with hSERT, hNET, hDAT: `c1ccc([C@H]2OCNC[C@@H]2c2ccc3ccccc3c2)cc1` S > D > N

Provide value of Potency (rank-order of potency of binding; S = hSERT, N = hNET, D = hDAT) for this record tested with hSERT, hNET, hDAT: `CNC[C@@H](c1ccc2ccccc2c1)[C@@H](F)c1ccccc1` S > D > N

Provide value of Potency (rank-order of potency of binding; S = hSERT, N = hNET, D = hDAT) for this record tested with hSERT, hNET, hDAT: `CNC[C@H](c1ccc2ccccc2c1)[C@H](OC(C)=O)c1ccccc1` N > S > D

Provide value of Potency (rank-order of potency of binding; S = hSERT, N = hNET, D = hDAT) for this record tested with hSERT, hNET, hDAT: `CN1CN[C@H](c2ccccc2)[C@@H](c2ccc3ccccc3c2)C1` S>D>N

Provide value of Potency (rank-order of potency of binding; S = hSERT, N = hNET, D = hDAT) for this record tested with hSERT, hNET, hDAT: CNCC(c1ccc2ccccc2c1)C(F)c1ccccc1 (racemic) [MCJ001-F-(±)-RR] S > N > D

Provide value of Potency (rank-order of potency of binding; S = hSERT, N = hNET, D = hDAT) for this record tested with hSERT, hNET, hDAT: CCN(CC)C(=O)C1(c2ccccc2)CC1CN (stereo not drawn) [Milnacipran, reference compound] S > N > D

---

Molecular target: human dopamine transporter (hDAT) (Homo sapiens, UniProt Q01959)
Construct: expressed in transfected cells; host or cells: HEK-293, stably transfected
Assay: Radioligand binding to cloned hDAT, [3H]WIN35428, HEK-293 cell membranes
Conditions: Geometric Mean ± SEM; HCl salts; read-out: Equilibrium Dissociation Constant (KD) for Transporter Binding, hDAT (D)
Procedure: HEK-293 cells expressing the recombinant hSERT or hDAT were incubated with Dulbecco's modified Eagles medium (MEM) supplemented with 0.1 mM nonessential amino acid solution for MEM, 5% v/v fetal bovine serum and 1 U/mL penicillin/streptomycin solution. Cells expressing the hNET transporter were incubated with Dulbecco's modified Eagles medium supplemented with 10% v/v fetal bovine serum and 100 U/mL penicillin/streptomycin solution and 2 mM L-glutamine. […]
Below, each entry is listed with its recorded pKd.
Would you please state pKd, meaning minus log10 of the concentration in mol/L, as a bare number?

In the examples that follow, each entry is paired with its recorded pKd.
CN1CO[C@@H](c2ccccc2)[C@H](c2ccc3ccccc3c2)C1 [MCJ001-OH-Cyc-RR]    6.74
c1ccc([C@H]2OCNC[C@@H]2c2ccc3ccccc3c2)cc1 [MCJ000-OH-Cyc-SS]    6.48
CNC[C@H](c1ccc2ccccc2c1)[C@H](OCCCCO[C@H](c1ccccc1)[C@H](CNC)c1ccc2ccccc2c1)c1ccccc1 [MCJ001-Dimer4-SS]    6.62
CNC[C@@H](c1ccc2ccccc2c1)[C@H](Cl)c1ccccc1 [MCJ001-Cl-SR]    6.46
CNCC(c1ccc2ccccc2c1)C(OC)c1ccccc1 (racemic) [MCJ001-OMe-(±)-SR]    6.22
CNC[C@@H](c1ccc2ccccc2c1)[C@@H](Cl)c1ccccc1 [MCJ001-Cl-RR]    6.54
CNC[C@H](c1ccc2ccccc2c1)[C@@H](N=[N+]=[N-])c1ccccc1 [MCJ001-N3-RS]    6.72
CNC[C@H](c1ccc2ccccc2c1)[C@H](OC(C)=O)c1ccccc1 [MCJ001-OAc-SS]    6.82
CNC[C@H](c1ccc2ccccc2c1)[C@@H](N)c1ccccc1 [MCJ001-NH2-RS]    6.42
CNC[C@@H](c1ccc2ccccc2c1)[C@H](N=[N+]=[N-])c1ccccc1 [MCJ001-N3-SR]    5.84

So what does the record say about pKd for CNC[C@H](c1ccc2ccccc2c1)[C@H](OCCCCCO[C@H](c1ccccc1)[C@H](CNC)c1ccc2ccccc2c1)c1ccccc1 [MCJ001-Dimer5-SS] ? 6.95

So what does the record say about pKd for CNC[C@@H](c1ccc2ccccc2c1)[C@H](N)c1ccccc1 [MCJ001-NH2-SR] ? 6.59
